- Tested on: LOX IMVI melanoma
- Protocol details: NCI-60 one-dose screen, 48 h (100 = growth as untreated, 0 = no growth, -100 = all killed)
- Measurement context: 10 µM
Compounds without any hit were thinned out: in the full panel of roughly 83,000, 20% have a hit.
Measurement label: growth (%)
Write the number in % without appending the unit.

Inquiry: Given the compound `CC(=O)/C=C/c1ccc(OCc2ccc(Cl)cc2)cc1` , what is its reported growth?
Reply text: 86.7

Inquiry: Recorded growth for `CCN(Cc1ccccc1)c1ccc(/C=C2\COc3ccccc3C2=O)cc1` , please?
Reply text: 96.3

Inquiry: Dear colleague, I am looking for the recorded growth of the following compound: `O=C(/C=C/c1cccc(Oc2ccc(Cl)cc2)c1)c1ccccc1`
Reply text: 38.2

Inquiry: May I ask what growth has been recorded for `CC(=O)/C=C/c1ccc(N(C)Cc2ccc(C(C)(C)C)cc2)cc1` ?
Reply text: 80.1

Inquiry: I am curious: what growth value has been reported for `COc1ccc(C(=O)/C=C/c2ccc(OCc3cccc(C(F)(F)F)c3)c(OC)c2)cc1OC` ?
Reply text: 51

* * *

Kindly supply the reported growth values for the records listed here.
- System: UACC-257 melanoma
- Protocol details: NCI-60 one-dose screen, 48 h (100 = growth as untreated, 0 = no growth, -100 = all killed)
- Measurement context: 10 µM unless noted
About 83,000 compounds went through this panel and 20% of them were active in at least one assay; those are over-represented in the sample as a whole.
Write the answer as a number in %, unit excluded.

Inquiry: Give growth (UACC-257 melanoma) of the following compound: `Nc1n[nH]c2cccc(C#Cc3cccc(NC(=O)c4ccc(N5CCOCC5)c(C(F)(F)F)c4)c3)c12`
Reply text: 17.6

Inquiry: # value lookup — system UACC-257 melanoma, readout growth, item `O=C(CCl)n1nnnc1Cc1ccccc1`
Reply text: 88.7

Inquiry: # value lookup — system UACC-257 melanoma, readout growth, item `O=C1CCCCN1CCCCC#Cc1cccc(C#Cc2cccnc2)c1`
Reply text: 84.4

Inquiry: // map `COc1cc2cc(NCc3ccncc3)nc(C)c2cc1OC` to recorded growth (system: UACC-257 melanoma)
Reply text: 79.3

Inquiry: // map `S=c1nc(CS)[nH]c2ccccc12` to recorded growth (system: UACC-257 melanoma)
Reply text: 95.9

Inquiry: Form field: growth recorded for `CN1Cn2c(ccc2C(F)(F)F)C(=O)CS1(=O)=O` with UACC-257 melanoma (enter value)
Reply text: 102

Inquiry: Enter reported growth observed with UACC-257 melanoma for `COc1ccc(NC(=O)Nc2ccccc2CNc2nc(Nc3ccc(OCCN4CCCC4)cc3)ncc2Cl)cc1`
Reply text: -46.8

Inquiry: Form field: growth recorded for `OCCN1CCN(c2cc(-c3cccc(OC(F)(F)F)c3)nc3ccc(N4CCCC4)cc23)CC1` with UACC-257 melanoma (enter value)
Reply text: 65.2

Inquiry: Please provide the recorded growth for O=C1OCC2=C1C(c1cccc(C(F)(F)F)c1)c1cc3c(cc1N2CCO)CCC3 (centres undefined) , tested on UACC-257 melanoma.
Reply text: 67.8

Inquiry: Hi! What's the reported growth for `CCCCSc1ccc2nc(-c3ccc(OCCCN=C(N)N)cc3)cn2c1` on UACC-257 melanoma?
Reply text: 85.7

Inquiry: What reported growth corresponds to C=C(CNCCO)[C@@H]1CC[C@]2(CO)CC[C@]3(C)[C@H](CC[C@@H]4[C@@]5(C)CCC(NCCc6ccc(O)cc6)C(C)(C)[C@@H]5CC[C@]43C)[C@@H]12 (some centres undefined) on UACC-257 melanoma?
Reply text: -86.3

Inquiry: Give recorded growth with UACC-257 melanoma for the following compound: `CC(=O)c1nn(-c2ccccc2)/c(=N/N=Cc2cn(-c3ccccc3)nc2-c2cc3ccccc3oc2=O)s1`
Reply text: 108

Inquiry: Recall the recorded growth for `O=C(Nc1ccc2ncsc2c1)c1csc(Nc2ccc3[nH]ncc3c2)n1` with UACC-257 melanoma and state it.
Reply text: 63.8

Inquiry: For the record `CC/C(=C(/c1ccc(Cl)cc1)c1ccc(OCCN2CCOCC2)cc1)c1ccccc1` , what value of growth is listed for UACC-257 melanoma?
Reply text: 98.8

Inquiry: Notebook: pull reported growth for UACC-257 melanoma, entry COc1ccc(C(c2cc(OC)c(OC)c(OC)c2)n2ccnc2)cc1O (centres undefined)
Reply text: 37.8

Inquiry: Fill in the recorded growth for this compound, with UACC-257 melanoma as test system: `Nc1ncc(-c2ccc3ncnc(N4CCc5ccc(Cl)cc54)c3c2)cc1C(F)(F)F`
Reply text: 29.3

Inquiry: Entry `O=[N+]([O-])c1ccc2[nH]c3nccc(NCc4cccc(Cl)c4)c3c2c1` , system UACC-257 melanoma: what growth was measured?
Reply text: 85.5

Inquiry: Give UACC-257 melanoma growth for COc1ccc2nc3cc(Cl)ccc3c(NCCCNCCC(C)O)c2c1 (centres undefined)
Reply text: -83.9

Inquiry: Lookup: growth / UACC-257 melanoma / `CC(=NCc1ccccc1)c1ccc(O)cc1O`
Reply text: 88.1

Inquiry: Fill in the recorded growth for this compound, with UACC-257 melanoma as test system: `CCOC(=O)n1cc(-c2nonc2-c2cn(C)c3ccc(OC)cc23)c2cc(F)ccc21`
Reply text: 74.5

Inquiry: Please tell me: growth of `CC(=O)c1c(C)nc2ccccc2c1/C=C/c1cccc(C)c1` , system UACC-257 melanoma?
Reply text: 73.5

Inquiry: Kindly state the measured growth obtained for `COc1cc2c(cc1OCCCOC1=C=C=C(c3ccc4c(c3)c3cc(-c5ccc(OCCCOc6cc7c(cc6OC)C(=O)N6CCC[C@H]6C=N7)cc5)ccc3n4S(=O)(=O)c3ccc(C)cc3)C=C1)N=C[C@@H]1CCCN1C2=O` with UACC-257 melanoma.
Reply text: 52.6

Inquiry: What is its growth for UACC-257 melanoma? Entry: CCOC(=O)c1cnn(CC(O)CC)c1NC(=O)NCc1ccccc1C(F)(F)F (centres undefined)
Reply text: 103

Inquiry: Item `CCCCCCCCCCCCCCCCCCn1cc(COc2ccc(C=O)cc2)nn1` with UACC-257 melanoma - growth?
Reply text: 109

Inquiry: Report growth for `CCn1cc(C(=O)NN=C2CCCC2)c(=O)c2ccc(C)nc21` tested on UACC-257 melanoma.
Reply text: 90.1

Inquiry: Report growth for `CCOC(=O)CCCn1c(-c2ccccc2)cc(-c2ccccc2)c(C#N)c1=O` tested on UACC-257 melanoma.
Reply text: 90.5

Inquiry: Test system UACC-257 melanoma; read-out growth; what value for CC[C@]12CN3CCc4c([nH]c5ccccc45)[C@@](C(=O)OC)(c4cc5c(cc4OC)N(C)[C@H]4[C@@](O)(C(=O)OC)[C@H](OC(C)=O)[C@]6(CC)C=CCN7CC[C@]54[C@@H]76)CC(C3)[C@H]1O2 (some centres undefined) ?
Reply text: 42.3

Inquiry: Lab note: need growth with UACC-257 melanoma for entry `COc1cc2ncnc(Nc3ccc(F)c(Cl)c3)c2cc1OCC(=O)N1CCCCC1` , please look it up.
Reply text: 101

Inquiry: Can you look up growth on UACC-257 melanoma for `CCC(=C(c1ccc(OCCCN(C)C)cc1)c1ccc(OCCCN(C)C)cc1)c1ccc(Cl)cc1` ?
Reply text: -77.1

Inquiry: Return growth measured with UACC-257 melanoma given this compound: CC(=O)N1N=C(c2ccc(Nc3nc(Nc4ccc(F)cc4)nc(Nc4ccc(Cl)cc4)n3)cc2)CC1c1ccc(N(C)C)cc1 (centres undefined)
Reply text: 46.8

Inquiry: Can you look up growth on UACC-257 melanoma for `COC(=O)c1nc(-c2ccc(C)cc2)oc1S(=O)(=O)c1ccc(Cl)cc1` ?
Reply text: 100

Inquiry: Request: growth, test system UACC-257 melanoma, entry `COc1cc(CO)cc2cc3ccccc3nc12`
Reply text: 105

Inquiry: Given the entry CN(Cc1ccccc1)c1nc(Cl)c(C2CC(c3ccc(F)cc3)=NN2C=O)s1 (centres undefined) , what growth was observed with UACC-257 melanoma?
Reply text: 103

Inquiry: Fill in the recorded growth for this compound, with UACC-257 melanoma as test system: `O=C(N=Nc1c(O)[nH]c2ccccc12)Nc1ccccc1Cl`
Reply text: 92

Inquiry: What is its growth for UACC-257 melanoma? Entry: `COc1ccc2c(c1)c(C(=O)c1nc(-c3cn(C)c4ccccc34)no1)cn2C`
Reply text: 89

Inquiry: What value of growth on UACC-257 melanoma does `O=C(Nc1ccc2ccccc2c1)c1cc2ccccc2cc1O` have?
Reply text: 85.6

Inquiry: Request: growth, test system UACC-257 melanoma, entry Nc1ncnc2c1C(c1ccc([N+](=O)[O-])cc1)c1sc3c(F)cccc3c1O2 (centres undefined)
Reply text: 121

Inquiry: What value of growth on UACC-257 melanoma does `NC1=CC(=O)c2cccnc2C1=O` have?
Reply text: -48.4

Inquiry: Lookup: growth / UACC-257 melanoma / `O=S(=O)(Nc1ccc(F)cc1)c1ccc(-c2cnc(C3CC3)o2)cc1`
Reply text: 43.4
